The reported numbers originate from ChEMBL document CHEMBL1128469.

Target: Spermine synthase (Rattus norvegicus)
Assay: Inhibition of Spermidine aminopropyltransferase (SAPT) in rat liver.
readout-name: IC50 (nM)

compound | tested-target | unit-string | recorded-value
NCCCNCCCCCC(CCN)SC[C@H]1OC(n2cnc3c(N)ncnc32)[C@H](O)[C@@H]1O (stereo partly specified) | Spermine synthase (Rattus norvegicus) | nM | 50
